test system: α2 subunit of the GABAA receptor; assay: Ligand-binding assay, competitive with radiolabeled flumazenil, spinal cord membranes; settings: 10^−5M compound; 1 nM radiolabeled flumazenil; rat spinal cord membranes
# maps each entry to its % inhib 10^−5M
Form entry: value (%) — number only.

Request: What measured % inhib 10^−5M goes with Cc1nn2c(-c3ccc(F)c(N(C)S(C)(=O)=O)c3)ccnc2c1C#N [Preparative example 11] ?
Result: 95.0

Request: Form field: reported % inhib 10^−5M of CN(c1cc(-c2ccnc3c(C#N)cnn23)ccc1F)S(C)(=O)=O [Preparative example 6]
Result: 87.5

Please look at the following compound next.
Request: Requested read-out: % inhib 10^−5M. Entry: CCN(C(C)=O)c1cccc(-c2ccnc3c(C#N)cnn23)c1 [Zaleplon, reference compound]
Result: 77.4
